assay: Crossover study of relative bioavailability of tablet versus capsule (005 Study): plasma PK; type: in vivo, human; conditions: human, plasma, po, 25 mg, single oral 25 mg Capsule, healthy adults; read-out: AUC(0-t) Mean(SD)
experimental.readout: AUC(0-t) (ng·h/mL)
Expressed in ng·h/mL, but write only the number.

For the molecule Cc1ncc(OC[C@@]2(c3cccc(F)c3)C[C@H]2C(=O)Nc2ccc(F)cn2)c(C)n1 , give its reported AUC(0-t).
1080

###

test: Crossover study of relative bioavailability of tablet versus capsule (005 Study): plasma PK; type: in vivo, human; conditions: human, plasma, po, 25 mg, single oral 25 mg Capsule, healthy adults; read-out: AUC(0-8) Mean(SD)
experimental.readout: AUC(0-t) (ng·h/mL)
Expressed in ng·h/mL, but write only the number.

For the molecule Cc1ncc(OC[C@@]2(c3cccc(F)c3)C[C@H]2C(=O)Nc2ccc(F)cn2)c(C)n1 [Compound A] , give its reported AUC(0-t).
358

All figures here come from patent US11026944B2.
